The entries below are paired with their reported IC50.
biological target: recombinant alpha-glucosidase II (murine full-length glucosidase II, alpha and beta subunits, Glu 2) (Mus musculus, UniProt Q8BHN3); construct: made in house; host or cells: HEK-293T cells transduced with BacMam viruses (75% alpha, 25% beta); protein harvested from culture supernatant; assay: Alpha-glucosidase II assay (4-methylumbelliferyl-alpha-D-pyranoside substrate, fluorescence); assay type: biochemical; conditions: Glucosidase 2; read-out: Glu2 IC50
Sequence (O08795 15-521): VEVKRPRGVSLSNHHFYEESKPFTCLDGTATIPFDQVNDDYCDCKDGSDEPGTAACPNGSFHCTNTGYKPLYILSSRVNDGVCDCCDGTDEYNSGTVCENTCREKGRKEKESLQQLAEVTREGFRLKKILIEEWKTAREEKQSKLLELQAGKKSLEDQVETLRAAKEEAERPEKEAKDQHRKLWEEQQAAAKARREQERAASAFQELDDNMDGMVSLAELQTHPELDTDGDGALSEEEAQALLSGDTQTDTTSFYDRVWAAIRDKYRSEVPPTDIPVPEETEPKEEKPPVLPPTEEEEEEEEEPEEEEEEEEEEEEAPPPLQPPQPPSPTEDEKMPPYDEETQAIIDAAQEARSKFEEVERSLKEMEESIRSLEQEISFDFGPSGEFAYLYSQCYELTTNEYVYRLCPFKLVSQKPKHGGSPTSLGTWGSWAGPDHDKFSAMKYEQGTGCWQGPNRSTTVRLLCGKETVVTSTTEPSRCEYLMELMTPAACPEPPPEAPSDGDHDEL
Sequence (Q8BHN3 33-944): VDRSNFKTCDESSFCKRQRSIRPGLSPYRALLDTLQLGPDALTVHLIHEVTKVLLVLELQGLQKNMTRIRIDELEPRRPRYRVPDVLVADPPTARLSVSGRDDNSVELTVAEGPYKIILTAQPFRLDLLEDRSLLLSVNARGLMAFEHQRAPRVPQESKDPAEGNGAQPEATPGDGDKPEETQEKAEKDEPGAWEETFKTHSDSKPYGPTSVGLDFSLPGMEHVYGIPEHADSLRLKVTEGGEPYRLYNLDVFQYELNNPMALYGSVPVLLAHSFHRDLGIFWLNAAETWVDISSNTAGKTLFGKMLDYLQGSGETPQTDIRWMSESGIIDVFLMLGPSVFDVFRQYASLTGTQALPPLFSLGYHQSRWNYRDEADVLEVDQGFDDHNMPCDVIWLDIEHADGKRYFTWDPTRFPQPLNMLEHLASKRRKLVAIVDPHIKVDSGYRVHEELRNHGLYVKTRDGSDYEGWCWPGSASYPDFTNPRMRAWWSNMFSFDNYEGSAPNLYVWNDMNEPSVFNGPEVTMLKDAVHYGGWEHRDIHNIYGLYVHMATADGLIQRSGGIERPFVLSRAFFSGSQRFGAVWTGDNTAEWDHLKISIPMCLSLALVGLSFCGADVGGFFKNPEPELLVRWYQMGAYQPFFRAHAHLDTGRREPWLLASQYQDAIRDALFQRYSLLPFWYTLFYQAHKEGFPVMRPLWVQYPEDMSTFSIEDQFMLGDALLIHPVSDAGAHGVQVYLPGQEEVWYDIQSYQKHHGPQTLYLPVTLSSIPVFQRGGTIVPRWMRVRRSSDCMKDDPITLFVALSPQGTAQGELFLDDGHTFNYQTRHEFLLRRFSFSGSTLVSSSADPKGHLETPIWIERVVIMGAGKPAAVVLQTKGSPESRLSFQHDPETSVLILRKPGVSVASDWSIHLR

MOLECULE	IC50
O=[N+]([O-])c1cc(-c2cccnn2)ccc1NCCc1ccc(CCN2C[C@H](O)[C@@H](O)[C@H](O)[C@H]2CO)cc1 [Compound 1109]	< 1 nM
COC(=O)c1cc(Cl)cc(NCCc2ccc(CCN3C[C@H](O)[C@@H](O)[C@H](O)[C@H]3CO)cc2)c1 [Compound 1116]	< 1 nM
Nc1ccc(NCCCCCCCCN2C[C@H](O)[C@@H](O)[C@H](O)[C@H]2CO)c([N+](=O)[O-])c1Cl [Compound 1277]	< 1 nM

Where these numbers come from: patent US20250197372A1
